Value source: patent US12274729B2

System: barrier marker genes in differentiated normal human epidermal keratinocytes (NHEK)
Test: qPCR mRNA expression of barrier marker genes in differentiated NHEK
Type: cell-based
Conditions: qPCR data from two donors
readout.name: effectiveness in comparative analysis of qPCR data with scoring system

Here's what some known entries look like.
> print(dat)
                                   molecule       meas.value
1  N[C@@H](CC(=O)O)C(=O)O [Asp, aspartic acid]  least effective
2   NC(=O)CC[C@H](N)C(=O)O [Gln, glutamine]   most effective
3         O=C(O)[C@@H]1CCCN1 [Pro, proline]  least effective
4         N[C@@H](CS)C(=O)O [Cys, cysteine]  least effective
5           N[C@@H](CO)C(=O)O [Ser, serine]   most effective

Prompt: Quick one: effectiveness in comparative analysis of qPCR data with scoring system of C[C@@H](O)[C@H](N)C(=O)O [Thr, threonine] ?
Completion: least effective

Prompt: Suppose we examine the molecule N[C@@H](Cc1ccc(O)cc1)C(=O)O [Tyr, tyrosine] ; what effectiveness in comparative analysis of qPCR data with scoring system value has been reported?
Completion: least effective

Prompt: Any idea what its effectiveness in comparative analysis of qPCR data with scoring system is? The molecule is C[C@H](N)C(=O)O [Ala, alanine]
Completion: most effective

Prompt: Which effectiveness in comparative analysis of qPCR data with scoring system is listed for NCC(=O)O [Gly, glycine] ?
Completion: most effective
